conditions: in n-butanol, 333.15 K
REPORTED PROPERTY: solubility (mole fraction)
// response body must contain only the number

// query What measured solubility (mole fraction) goes with C[C@H]1[C@H](C)CC[C@]2(C(=O)O[C@@H]3O[C@H](CO[C@@H]4O[C@H](CO)[C@@H](O[C@@H]5O[C@@H](C)[C@H](O)[C@@H](O)[C@H]5O)[C@H](O)[C@H]4O)[C@@H](O)[C@H](O)[C@H]3O)CC[C@]3(C)C(=CC[C@@H]4[C@@]5(C)C[C@@H](O)[C@H](O)[C@@](C)(CO)[C@@H]5CC[C@]43C)[C@H]12 ?
// result 0.000101
